Catalogue of Papp A→B at 1 µM values
- measurement_protocol: Bidirectional permeability measurement in Caco-2 cells
- Format: in vitro ADME
- settings: human, Caco-2, pH 7.4, Modified Caco-2; read-out: Modified Caco-2 Pab

[
  {
    "compound": "Cc1ncsc1-c1ccc([C@H](COC(C)CN2CCC(c3ccc4c(c3)n(C3CCCC3)c3nc(=O)c5c(Br)cccc5n43)CC2)NC(=O)[C@@H]2C[C@@H](O)CN2C(=O)[C@@H](NC(=O)C2(N(C)C)CC2)C(C)(C)C)cc1 (stereo partly shown)",
    "inequality_sign": "<",
    "Papp A→B at 1 µM / ×10⁻⁶ cm/s": 1
  },
  {
    "compound": "Cc1ncsc1-c1ccc([C@H](CCCCCN2CCC(c3ccc4c(c3)n(C3CCCC3)c3nc(=O)c5c(Br)cccc5n43)CC2)NC(=O)[C@@H]2C[C@@H](O)CN2C(=O)[C@@H](NC(=O)C2(F)CC2)C(C)(C)C)cc1",
    "inequality_sign": "=",
    "Papp A→B at 1 µM / ×10⁻⁶ cm/s": 6
  },
  {
    "compound": "Cc1ncsc1-c1ccc(C(CCC(C)CCN2CCC(c3ccc4c(c3)n(C3CCCC3)c3nc(=O)c5c(Br)cccc5n43)CC2)NC(=O)C2CC(O)CN2C(=O)C(NC(=O)C2(F)CC2)C(C)(C)C)cc1 (stereo not shown)",
    "inequality_sign": "=",
    "Papp A→B at 1 µM / ×10⁻⁶ cm/s": 9
  },
  {
    "compound": "Cc1ncsc1-c1ccc([C@H](COC(C)CN2CCC(c3ccc4c(c3)n(C3CCCC3)c3nc(=O)c5c(Br)cccc5n43)CC2)NC(=O)[C@@H]2C[C@@H](O)CN2C(=O)[C@@H](NC(=O)C2(F)CC2)C(C)(C)C)cc1 (stereo partly shown)",
    "inequality_sign": "=",
    "Papp A→B at 1 µM / ×10⁻⁶ cm/s": 4
  }
]

---

- system_name: VCB: PROTAC: SMARCA2^BD ternary complex (Homo sapiens, UniProt P40337+P51531)
- Sequence (P40337 54-213): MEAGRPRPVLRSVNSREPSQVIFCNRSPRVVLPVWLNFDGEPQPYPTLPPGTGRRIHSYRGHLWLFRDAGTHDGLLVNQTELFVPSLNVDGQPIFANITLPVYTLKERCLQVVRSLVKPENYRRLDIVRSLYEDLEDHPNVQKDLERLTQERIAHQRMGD
- Sequence (Q15369 17-112 partner limits assumed): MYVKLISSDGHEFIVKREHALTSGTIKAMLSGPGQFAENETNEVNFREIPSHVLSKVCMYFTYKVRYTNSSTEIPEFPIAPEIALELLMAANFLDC
- Sequence (Q15370 1-104 partner limits assumed): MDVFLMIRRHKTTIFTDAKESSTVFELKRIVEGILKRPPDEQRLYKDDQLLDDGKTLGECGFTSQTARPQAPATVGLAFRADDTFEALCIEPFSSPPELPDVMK
- Sequence (P51531 1373-1493 isoform P51531-2): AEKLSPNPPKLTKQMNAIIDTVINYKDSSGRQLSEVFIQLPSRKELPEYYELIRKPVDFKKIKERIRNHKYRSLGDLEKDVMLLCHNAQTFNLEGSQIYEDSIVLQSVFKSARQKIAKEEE
- measurement_protocol: SPR ternary complex measurement, VCB immobilised, 10 µM SMARCA2^BD present
- Assay type: binding
- Set-up: P51531-2, residues 1373-1493 with additional N-terminal SM residues; His6 (TEV site) (N, cleaved yes); GST (TEV site) (N, cleaved yes); made in house; host or cells: SMARCA2^BD: Escherichia coli BL21(DE3)
- settings: SPR, ternary complex with SMARCA2BD; mean ± SD
Catalogue of Kd values

[
  {
    "compound": "Cc1ncsc1-c1ccc([C@H](CC[C@@H](C)CCN2CCC(c3ccc4c(c3)n(C3CCCC3)c3nc(=O)c5c(Br)cccc5n43)CC2)NC(=O)[C@@H]2C[C@@H](O)CN2C(=O)[C@@H](NC(=O)C2(F)CC2)C(C)(C)C)cc1 [compound 29]",
    "system_name": "VCB: PROTAC: SMARCA2^BD ternary complex (Homo sapiens, UniProt P40337+P51531)",
    "Kd": "0.02 µM"
  },
  {
    "compound": "Cc1ncsc1-c1ccc(CNC(=O)[C@@H]2C[C@@H](O)CN2C(=O)[C@@H](NC(=O)C2(F)CC2)C(C)(C)C)c(OCCCCN2CCC(c3ccc4c(c3)n(C3CCCC3)c3nc(=O)c5c(Br)cccc5n43)CC2)c1 [compound 23]",
    "system_name": "VCB: PROTAC: SMARCA2^BD ternary complex (Homo sapiens, UniProt P40337+P51531)",
    "Kd": "0.12 µM"
  },
  {
    "compound": "Cc1ncsc1-c1ccc([C@H](COC(C)CN2CCC(c3ccc4c(c3)n(C3CCCC3)c3nc(=O)c5c(Br)cccc5n43)CC2)NC(=O)[C@@H]2C[C@@H](O)CN2C(=O)[C@@H](NC(=O)C2(F)CC2)C(C)(C)C)cc1 (some centres unmarked) [compound 9]",
    "system_name": "VCB: PROTAC: SMARCA2^BD ternary complex (Homo sapiens, UniProt P40337+P51531)",
    "Kd": "0.21 µM"
  },
  {
    "compound": "Cc1ncsc1-c1ccc([C@H](COCCN2CCC(c3ccc4c(c3)n(C3CCCC3)c3nc(=O)c5c(Br)cccc5n43)CC2)NC(=O)[C@@H]2C[C@@H](O)CN2C(=O)[C@@H](NC(=O)C2(N(C)C)CC2)C(C)(C)C)cc1 [compound 26]",
    "system_name": "VCB: PROTAC: SMARCA2^BD ternary complex (Homo sapiens, UniProt P40337+P51531)",
    "Kd": "0.095 µM"
  },
  {
    "compound": "Cc1ncsc1-c1ccc([C@H](COC(C)CN2CCC(c3ccc4c(c3)n(C3CCCC3)c3nc(=O)c5c(Br)cccc5n43)CC2)NC(=O)[C@@H]2C[C@@H](O)CN2C(=O)[C@@H](NC(=O)C2(N(C)C)CC2)C(C)(C)C)cc1 (some centres unmarked) [compound 10]",
    "system_name": "VCB: PROTAC: SMARCA2^BD ternary complex (Homo sapiens, UniProt P40337+P51531)",
    "Kd": "0.159 µM"
  },
  {
    "compound": "Cc1ncsc1-c1ccc(CNC(=O)[C@@H]2C[C@@H](O)CN2C(=O)[C@@H](NC(=O)C2(F)CC2)C(C)(C)C)c(OCCN2CCC(c3ccc4c(c3)n(C3CCCC3)c3nc(=O)c5c(Br)cccc5n43)CC2)c1 [compound 20]",
    "system_name": "VCB: PROTAC: SMARCA2^BD ternary complex (Homo sapiens, UniProt P40337+P51531)",
    "Kd": "0.097 µM"
  },
  {
    "compound": "Cc1ncsc1-c1ccc(CNC(=O)[C@@H]2C[C@@H](O)CN2C(=O)[C@@H](NC(=O)C2(F)CC2)C(C)(C)C)c(OCCOCCOCCOCCN2CCC(c3ccc4c(c3)n(C3CCCC3)c3nc(=O)c5c(Br)cccc5n43)CC2)c1 [compound 22]",
    "system_name": "VCB: PROTAC: SMARCA2^BD ternary complex (Homo sapiens, UniProt P40337+P51531)",
    "Kd": "0.077 µM"
  },
  {
    "compound": "Cc1ncsc1-c1ccc([C@H](CCC(C)(C)CCN2CCC(c3ccc4c(c3)n(C3CCCC3)c3nc(=O)c5c(Br)cccc5n43)CC2)NC(=O)[C@@H]2C[C@@H](O)CN2C(=O)[C@@H](NC(=O)C2(F)CC2)C(C)(C)C)cc1 [compound 30]",
    "system_name": "VCB: PROTAC: SMARCA2^BD ternary complex (Homo sapiens, UniProt P40337+P51531)",
    "Kd": "0.086 µM"
  },
  {
    "compound": "Cc1ncsc1-c1ccc([C@H](COC(C)(C)CN2CCC(c3ccc4c(c3)n(C3CCCC3)c3nc(=O)c5c(Br)cccc5n43)CC2)NC(=O)[C@@H]2C[C@@H](O)CN2C(=O)[C@@H](NC(=O)C2(F)CC2)C(C)(C)C)cc1 [compound 28]",
    "system_name": "VCB: PROTAC: SMARCA2^BD ternary complex (Homo sapiens, UniProt P40337+P51531)",
    "Kd": "0.12 µM"
  },
  {
    "compound": "Cc1ncsc1-c1ccc(C(CCC(C)CCN2CCC(c3ccc4c(c3)n(C3CCCC3)c3nc(=O)c5c(Br)cccc5n43)CC2)NC(=O)C2CC(O)CN2C(=O)C(NC(=O)C2(F)CC2)C(C)(C)C)cc1 (centres unmarked) [ACBI2]",
    "system_name": "VCB: PROTAC: SMARCA2^BD ternary complex (Homo sapiens, UniProt P40337+P51531)",
    "Kd": "0.044 µM"
  },
  {
    "compound": "Cc1ncsc1-c1ccc([C@H](COCCCN2CCC(c3ccc4c(c3)n(C3CCCC3)c3nc(=O)c5c(Br)cccc5n43)CC2)NC(=O)[C@@H]2C[C@@H](O)CN2C(=O)[C@@H](NC(=O)C2(F)CC2)C(C)(C)C)cc1 [compound 27]",
    "system_name": "VCB: PROTAC: SMARCA2^BD ternary complex (Homo sapiens, UniProt P40337+P51531)",
    "Kd": "0.026 µM"
  },
  {
    "compound": "Cc1ncsc1-c1ccc([C@H](CCCCCN2CCC(c3ccc4c(c3)n(C3CCCC3)c3nc(=O)c5c(Br)cccc5n43)CC2)NC(=O)[C@@H]2C[C@@H](O)CN2C(=O)[C@@H](NC(=O)C2(F)CC2)C(C)(C)C)cc1 [compound 11]",
    "system_name": "VCB: PROTAC: SMARCA2^BD ternary complex (Homo sapiens, UniProt P40337+P51531)",
    "Kd": "0.037 µM"
  },
  {
    "compound": "Cc1ncsc1-c1ccc(CNC(=O)[C@@H]2C[C@@H](O)CN2C(=O)[C@@H](NC(=O)C2(F)CC2)C(C)(C)C)c(OCCOCCOCCN2CCC(c3ccc4c(c3)n(C3CCCC3)c3nc(=O)c5c(Br)cccc5n43)CC2)c1 [compound 21]",
    "system_name": "VCB: PROTAC: SMARCA2^BD ternary complex (Homo sapiens, UniProt P40337+P51531)",
    "Kd": "0.058 µM"
  },
  {
    "compound": "Cc1ncsc1-c1ccc([C@H](CCCCN2CCC(c3ccc4c(c3)n(C3CCCC3)c3nc(=O)c5c(Br)cccc5n43)CC2)NC(=O)[C@@H]2C[C@@H](O)CN2C(=O)[C@@H](NC(=O)C2(F)CC2)C(C)(C)C)cc1 [compound 25]",
    "system_name": "VCB: PROTAC: SMARCA2^BD ternary complex (Homo sapiens, UniProt P40337+P51531)",
    "Kd": "0.036 µM"
  }
]
